tested on: Calf thymus DNA; assay: Binding affinity to calf thymus DNA assessed as conformational change by circular dichroism analysis; type: nucleic-acid assay; details: Bos taurus
Active and inactive are the calls of the source. No cut-off for these calls is given here.
Give one outcome, nothing more. List: active, inactive

{"test.smiles": "Cl.Cl.N=C(N)c1ccc2[nH]c(-c3ccc(Cn4cc(COCc5cn(Cc6ccc(-c7nc8cc(C(=N)N)ccc8[nH]7)o6)nn5)nn4)o3)nc2c1", "qualitative.label": "active"}
{"test.smiles": "Clc1ccc2[nH]c(-c3ccc(Cn4cc(COc5ccc(OCc6cn(Cc7ccc(-c8nc9cc(Cl)ccc9[nH]8)o7)nn6)cc5)nn4)o3)nc2c1", "qualitative.label": "inactive"}
{"test.smiles": "Clc1ccc2[nH]c(-c3ccc(Cn4cc(COc5ccc(-c6ccc(OCc7cn(Cc8ccc(-c9nc%10cc(Cl)ccc%10[nH]9)o8)nn7)cc6)cc5)nn4)o3)nc2c1", "qualitative.label": "inactive"}
{"test.smiles": "Cl.Cl.c1cc2[nH]c(-c3ccc(Cn4cc(COCc5cn(Cc6ccc(-c7nc8cc(C9=NCCN9)ccc8[nH]7)o6)nn5)nn4)o3)nc2cc1C1=NCCN1", "qualitative.label": "active"}
{"test.smiles": "Clc1ccc2[nH]c(-c3ccc(Cn4cc(CCCc5cn(Cc6ccc(-c7nc8cc(Cl)ccc8[nH]7)o6)nn5)nn4)o3)nc2c1", "qualitative.label": "inactive"}

// param item: "CC(C)NC(=N)c1ccc2[nH]c(-c3ccc(Cn4cc(COc5ccc(OCc6cn(Cc7ccc(-c8nc9cc(C(=N)NC(C)C)ccc9[nH]8)o7)nn6)cc5)nn4)o3)nc2c1.Cl.Cl" ; yields the recorded call
active

* * *

experiment: Ratio of compound concentration to polynucleotide phosphate concentration for binding affinity to polyA-polyU dsRNA (unknown origin); format: nucleic-acid assay
parameter.measured: Ratio

{"test.smiles": "Cl.Cl.N=C(N)c1ccc2[nH]c(-c3ccc(Cn4cc(COCc5cn(Cc6ccc(-c7nc8cc(C(=N)N)ccc8[nH]7)o6)nn5)nn4)o3)nc2c1", "data.value": 0.43}

I = Cl.Cl.c1cc2[nH]c(-c3ccc(Cn4cc(CCCc5cn(Cc6ccc(-c7nc8cc(C9=NCCN9)ccc8[nH]7)o6)nn5)nn4)o3)nc2cc1C1=NCCN1
II = c1ccc2[nH]c(-c3ccc(Cn4cc(CCCc5cn(Cc6ccc(-c7nc8ccccc8[nH]7)o6)nn5)nn4)o3)nc2c1
Of the pair I and II , name the member with the lesser recorded Ratio. Pick one; state its label.
II

* * *

tested on: Calf thymus DNA; experiment: Binding affinity to calf thymus DNA assessed as conformational change by circular dichroism analysis; assay type: nucleic-acid assay; conditions: Bos taurus
Calls of active or inactive are those of the source. No cut-off for these calls is given here.
Could you please pick one outcome from this set? T = active, F = inactive

{"test.smiles": "Cl.Cl.c1cc(OCc2cn(Cc3ccc(-c4nc5cc(C6=NCCN6)ccc5[nH]4)o3)nn2)ccc1OCc1cn(Cc2ccc(-c3nc4cc(C5=NCCN5)ccc4[nH]3)o2)nn1", "qualitative.label": "T"}
{"test.smiles": "Fc1ccc2[nH]c(-c3ccc(Cn4cc(COc5ccc(OCc6cn(Cc7ccc(-c8nc9cc(F)ccc9[nH]8)o7)nn6)cc5)nn4)o3)nc2c1", "qualitative.label": "F"}
{"test.smiles": "Fc1ccc2[nH]c(-c3ccc(Cn4cc(CCCc5cn(Cc6ccc(-c7nc8cc(F)ccc8[nH]7)o6)nn5)nn4)o3)nc2c1", "qualitative.label": "F"}

What did this assay record as the result for "c1ccc2[nH]c(-c3ccc(Cn4cc(COCc5cn(Cc6ccc(-c7nc8ccccc8[nH]7)o6)nn5)nn4)o3)nc2c1" ?
F

Per the assay record, what outcome was assigned to "c1ccc2[nH]c(-c3ccc(Cn4cc(COc5ccc(-c6ccc(OCc7cn(Cc8ccc(-c9nc%10ccccc%10[nH]9)o8)nn7)cc6)cc5)nn4)o3)nc2c1" ?
F

Call for entry "c1ccc2[nH]c(-c3ccc(Cn4cc(COc5ccc(OCc6cn(Cc7ccc(-c8nc9ccccc9[nH]8)o7)nn6)cc5)nn4)o3)nc2c1" :
F
